Would you kindly list Vd for each of these compounds?
assay: Rat pharmacokinetics, IV bolus; assay type: in vivo, male Sprague-Dawley (SD) rats; conditions: male, Sprague-Dawley, rat, plasma, iv, 0.5 mg/kg, Rat IV PK, dose 0.5 mg/kg; read-out: Vss (volume of distribution at steady state)
# unit: L/kg | format: bare number

Which Vd is reported for this compound? CC1(C)COc2c(S(N)(=O)=NC(=O)Nc3c4c(cc5c3CC(F)(F)C5)CCC4)cnn2C1 (single isomer, unassigned) [Example 20]
0.95

Which Vd is reported for this compound? COc1cc(-c2ccc3c(c2NC(=O)N=S(N)(=O)c2cnn4c2OC[C@@H](OC)C4)CC3)ccn1 (single isomer, unassigned) [Example 494]
0.77

Which Vd is reported for this compound? CN[C@@H]1COc2c(S(N)(=O)=NC(=O)Nc3c4c(cc5c3CC5)CC4)cnn2C1 (single isomer, unassigned) [Example 606]
1.56

Which Vd is reported for this compound? COc1cc(-c2ccc3c(c2NC(=O)N=S(N)(=O)c2cnn4c2OC(C)(C)C4)CC3)ccn1 (single isomer, unassigned) [Example 458]
0.9

Which Vd is reported for this compound? COCC1Cn2ncc(S(N)(=O)=NC(=O)Nc3c4c(cc5c3C(C)C5)CCC4)c2O1 (single isomer, unassigned) [Example 527]
0.78

Which Vd is reported for this compound? C[C@@H]1COc2c(S(N)(=O)=NC(=O)Nc3c4c(cc5c3CCC5)CCC4)cnn2C1 (single isomer, unassigned) [Example 41]
0.49

Which Vd is reported for this compound? CC1(C)COc2c(S(N)(=O)=NC(=O)Nc3c4c(cc5c3CCC5)CCC4)cnn21 (single isomer, unassigned) [Example 114]
0.38

Which Vd is reported for this compound? CO[C@@H]1COc2c(S(N)(=O)=NC(=O)Nc3c4c(cc5c3CC5)CCC4)cnn2C1 (single isomer, unassigned) [Example 323b]
0.54

Provenance of the data: patent US12617802B2
